So I've got a bunch of molecules here, and I need their IC50 values.
- SUBJECT OF TEST: Matrix metalloproteinase-9 (Mus musculus)
Give bare numbers, in µM.

Check out these entries, answers already filled in.
SMILES TEXT	IC50 (µM)
CC(=O)N(Cc1ccccc1OCc1ccccc1)c1ccc2nc(CN)[nH]c2c1	83
NCc1cc2cc(NCc3ccccc3OCc3ccccc3)ccc2[nH]1	72
NCc1nc2cc(NC(=O)/C=C/c3cccnc3)ccc2[nH]1	85

Turning now to a further molecule:
Bench note, Matrix metalloproteinase-9 (Mus musculus): entry NCc1nc2ccc(NCc3ccc(OCc4ccccc4)cc3)cc2[nH]1 , its IC50 = 51

* * *

So I've got a bunch of compounds here, and I need their IC50 values.
- SUBJECT OF TEST: Matrix metalloproteinase-9 (Mus musculus, UniProt P41245)
- Sequence (P41245 whole entry): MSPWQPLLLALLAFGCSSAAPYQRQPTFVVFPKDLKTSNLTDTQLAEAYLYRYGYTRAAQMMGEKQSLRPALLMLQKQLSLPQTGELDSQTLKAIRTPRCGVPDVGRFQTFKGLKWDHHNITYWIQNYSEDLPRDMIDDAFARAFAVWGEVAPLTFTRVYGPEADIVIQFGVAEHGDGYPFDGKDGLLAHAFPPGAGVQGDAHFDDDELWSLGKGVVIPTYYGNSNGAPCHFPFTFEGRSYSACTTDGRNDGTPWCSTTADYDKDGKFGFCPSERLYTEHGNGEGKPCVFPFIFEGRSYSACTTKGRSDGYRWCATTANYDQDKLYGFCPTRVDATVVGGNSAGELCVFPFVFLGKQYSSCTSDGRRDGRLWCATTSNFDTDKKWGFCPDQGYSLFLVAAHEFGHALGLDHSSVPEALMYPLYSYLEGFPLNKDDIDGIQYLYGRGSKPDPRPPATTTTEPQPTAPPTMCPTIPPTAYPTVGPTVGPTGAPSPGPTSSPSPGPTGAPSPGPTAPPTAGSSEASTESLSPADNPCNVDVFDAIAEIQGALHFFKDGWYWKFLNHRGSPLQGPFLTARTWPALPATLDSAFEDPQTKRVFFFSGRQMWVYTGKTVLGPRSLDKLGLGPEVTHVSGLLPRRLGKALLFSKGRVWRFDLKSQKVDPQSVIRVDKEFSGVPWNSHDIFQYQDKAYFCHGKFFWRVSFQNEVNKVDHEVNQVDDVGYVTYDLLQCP
One number for each entry, in µM.

Check out these entries, answers already filled in.
SMILES TEXT	UNIT DESCRIPTOR	RECORDED NUMBER
NCc1nc2ccc(NC(=O)c3ccc(C(=O)c4ccccc4)cc3)cc2[nH]1	µM	46
NCc1nc2ccc(NCc3ccccc3)cc2[nH]1	µM	195

Turning now to a further compound:
response.value for NCc1nc2ccc(NCc3ccccc3Sc3ccccc3)cc2[nH]1 (field: IC50) = 56
